test: Solubility in different dissolution media (HPLC); details: phosphate buffer, 25 °C, pH 7.4, aqueous buffer, thermodynamic from solid
REPORTED METRIC: solubility at 24 h (µg/mL)

• CCCCCCCCCCCCCCCC(=O)NCCO [Raw PEA, Palmitoylethanolamide] = 0.64

The reported numbers originate from patent US12728099B2.
